Molecular target: Sko1 (UniProt Q02100)
Sequence: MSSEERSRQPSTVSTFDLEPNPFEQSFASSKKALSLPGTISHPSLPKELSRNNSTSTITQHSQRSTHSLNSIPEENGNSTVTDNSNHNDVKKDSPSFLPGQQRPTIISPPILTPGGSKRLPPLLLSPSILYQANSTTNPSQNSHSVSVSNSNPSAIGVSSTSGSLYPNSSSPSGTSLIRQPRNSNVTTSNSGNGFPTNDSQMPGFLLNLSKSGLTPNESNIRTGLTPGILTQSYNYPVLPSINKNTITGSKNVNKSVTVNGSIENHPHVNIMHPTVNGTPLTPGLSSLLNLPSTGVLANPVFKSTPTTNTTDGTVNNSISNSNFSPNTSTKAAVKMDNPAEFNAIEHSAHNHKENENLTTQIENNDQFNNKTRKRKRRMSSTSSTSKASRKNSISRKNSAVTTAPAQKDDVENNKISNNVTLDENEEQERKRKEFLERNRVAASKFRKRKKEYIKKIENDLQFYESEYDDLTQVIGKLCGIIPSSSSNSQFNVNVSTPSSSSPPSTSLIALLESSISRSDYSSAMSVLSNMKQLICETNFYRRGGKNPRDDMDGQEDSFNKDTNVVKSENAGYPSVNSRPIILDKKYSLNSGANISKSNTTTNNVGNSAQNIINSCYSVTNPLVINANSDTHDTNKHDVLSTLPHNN
Assay: PBM E-score (8-mer binding enrichment) (E-score (-0.5 to 0.5)); higher = stronger / more preferred TF binding
Conditions: protein concentration: 200 nM; construct: GST-full length
Over roughly 33,000 sequences, “E-score (-0.5 to 0.5)” has its median near -0.032; the highest 2% begin near 0.36. Shown is part of a subset that was picked to be rich in the highest values.
A collection of sequences and their measured PBM E-score
value-kind: PBM E-score

> print(dat)
    construct.sequence   value.kind  value.observed
 1            CTAATGAC  PBM E-score           0.299
 2            AACGTCTA  PBM E-score           0.239
 3            CGTCAACG  PBM E-score           0.389
 4            CTCAGTTA  PBM E-score         -0.0515
 5            AGTAACAG  PBM E-score         -0.0766
 6            ACACTACG  PBM E-score           0.368
 7            AACGTGTA  PBM E-score           0.247
 8            AAACAGTA  PBM E-score            0.14
 9            AGGCGTCA  PBM E-score           0.256
10            AGTCCCTG  PBM E-score          -0.259
11            ACCAAGGC  PBM E-score          -0.197
12            ATACGGAA  PBM E-score           0.141
13            CGTCAATA  PBM E-score           0.359
14            CTTAAAGA  PBM E-score         0.00637
15            TGATAGAA  PBM E-score          0.0834
16            GTTGAGCA  PBM E-score          0.0589
17            AAGCTCGG  PBM E-score          -0.169
18            GGTAACAC  PBM E-score          0.0477
19            AACCGCGC  PBM E-score         -0.0849
20            AATGCCTA  PBM E-score         -0.0242
21            AGATAGCC  PBM E-score          -0.299
22            GTAATGAA  PBM E-score           0.281
23            TCGTGTAA  PBM E-score           0.116
24            ACGCACGA  PBM E-score           0.295
25            GCCTGATA  PBM E-score         -0.0647
26            AAACCTTG  PBM E-score          0.0199
27            GTCGTGTA  PBM E-score           0.169
28            ATCGGCCC  PBM E-score          -0.133
29            ACGTGTAT  PBM E-score           0.414
30            AAGTGTAG  PBM E-score          0.0389
31            ACGCACAG  PBM E-score           0.254
32            GACGTCCA  PBM E-score           0.331
33            AAGTGTAT  PBM E-score          0.0856
34            ATACGTAA  PBM E-score           0.491
35            GAGACTGC  PBM E-score          -0.054
36            GGCTCACA  PBM E-score          -0.118
37            CTTGAATC  PBM E-score         -0.0656
38            CCGTGTAC  PBM E-score         -0.0602
39            TCGCGACA  PBM E-score         -0.0189
40            ACGTGTAA  PBM E-score           0.386
41            ATCAGTCA  PBM E-score           0.119
42            CCGATTAC  PBM E-score          0.0359
43            AGGCACTA  PBM E-score         -0.0926
44            ACGCGTCA  PBM E-score           0.436
45            GCGTGTAC  PBM E-score           0.227
46            ACACGGGT  PBM E-score          -0.189
47            CGCTATGC  PBM E-score           0.147
48            GCCATCCC  PBM E-score          -0.319
49            ACGCACGT  PBM E-score           0.403
50            CAGCGTCA  PBM E-score           0.269
51            TGGTGCAA  PBM E-score         -0.0842
52            CTCCAGGA  PBM E-score         -0.0718
53            AGTCAACG  PBM E-score          0.0691
54            GACGTCAC  PBM E-score           0.487
55            ACGCGTCT  PBM E-score           0.192
56            CGTCAATC  PBM E-score           0.365
57            ACGATTAC  PBM E-score           0.369
58            CGTAACAC  PBM E-score           0.374
59            TAATTCTA  PBM E-score           0.227
60            CCCTGGAC  PBM E-score          -0.188
61            CCCCAACC  PBM E-score          -0.062
62            GACGTCGC  PBM E-score           0.334
63            CTTATGAC  PBM E-score           0.374
64            AAGCACGA  PBM E-score          0.0735
65            AACGTCAA  PBM E-score           0.424
66            GCAGCGGC  PBM E-score          -0.178
67            TCTCGCAA  PBM E-score          -0.114
68            CACGTCTA  PBM E-score           0.314
69            CCGCGTCC  PBM E-score        -0.00078
70            ACTATGAC  PBM E-score           0.342
71            CGTCAGTC  PBM E-score           0.375
72            ATCTGGGA  PBM E-score          -0.147
73            CAGCAGGC  PBM E-score           -0.22
74            GCGATTAC  PBM E-score           0.144
75            ACGTGTAC  PBM E-score           0.409
76            ACGTGTAG  PBM E-score           0.367
77            ACCCGTGA  PBM E-score          0.0498
78            AACGTCCA  PBM E-score           0.245
79            TAGCGTCA  PBM E-score           0.398
80            TACGTCCA  PBM E-score           0.404
81            CTCCAAGA  PBM E-score          -0.189
82            TACGTCTA  PBM E-score           0.421
83            CGTCAACA  PBM E-score           0.323
84            GACGTGTA  PBM E-score           0.374
85            AAGCACGT  PBM E-score           0.389
86            GTAATGAC  PBM E-score           0.399
87            GAGATCGA  PBM E-score          0.0574
88            CTTATGAA  PBM E-score         -0.0245
89            CTTTCATA  PBM E-score           0.257
